TARGET_ENTITY: USP25 (USP25-His6, Boston Biochem E-546) (Homo sapiens, UniProt Q9UHP3)
Construct: His6; purchased Boston Biochem E-546
Sequence (Q9UHP3 whole entry): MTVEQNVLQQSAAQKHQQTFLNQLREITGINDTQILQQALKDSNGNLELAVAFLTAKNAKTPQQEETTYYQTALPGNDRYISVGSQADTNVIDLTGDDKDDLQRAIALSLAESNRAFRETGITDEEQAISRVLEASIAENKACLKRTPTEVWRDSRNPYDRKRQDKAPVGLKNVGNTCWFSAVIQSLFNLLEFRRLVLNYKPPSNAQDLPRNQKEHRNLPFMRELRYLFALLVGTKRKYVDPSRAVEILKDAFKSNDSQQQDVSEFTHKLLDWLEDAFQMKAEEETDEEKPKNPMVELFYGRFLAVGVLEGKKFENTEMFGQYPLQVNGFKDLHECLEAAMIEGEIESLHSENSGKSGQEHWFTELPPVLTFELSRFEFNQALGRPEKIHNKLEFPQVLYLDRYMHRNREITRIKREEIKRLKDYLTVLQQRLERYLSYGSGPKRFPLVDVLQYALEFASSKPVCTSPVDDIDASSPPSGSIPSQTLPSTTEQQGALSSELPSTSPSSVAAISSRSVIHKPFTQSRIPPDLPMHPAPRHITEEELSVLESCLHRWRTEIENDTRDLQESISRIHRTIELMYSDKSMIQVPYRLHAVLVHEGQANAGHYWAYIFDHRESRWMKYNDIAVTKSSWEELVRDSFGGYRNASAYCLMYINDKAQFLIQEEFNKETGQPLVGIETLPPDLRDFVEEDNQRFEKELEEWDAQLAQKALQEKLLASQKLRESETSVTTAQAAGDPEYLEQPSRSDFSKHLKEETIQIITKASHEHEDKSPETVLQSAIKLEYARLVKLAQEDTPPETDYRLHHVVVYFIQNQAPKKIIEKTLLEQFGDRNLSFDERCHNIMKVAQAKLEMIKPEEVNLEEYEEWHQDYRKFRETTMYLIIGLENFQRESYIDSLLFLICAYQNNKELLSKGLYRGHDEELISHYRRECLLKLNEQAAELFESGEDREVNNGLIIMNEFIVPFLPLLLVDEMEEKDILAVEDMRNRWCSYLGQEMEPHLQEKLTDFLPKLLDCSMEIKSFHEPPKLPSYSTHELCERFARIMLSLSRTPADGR
ASSAY_METHOD_TEXT: Ubiquitin-Rhodamine 110 Assay for USP25 Activity, Example A-2
Format: biochemical
SETTINGS: Ubiquitin-Rhodamine 110 assay, Example A-2; read-out: USP25 A-2 IC50 range
# IC50 annotations

Below, 5 compounds whose answers are already recorded.
O=C(N[C@H]1COc2cc(N3CCNCC3)ccc2C1)c1cnc2c(c1)CC[C@@H]2O
> 2000 nM
CCc1cccc2c(C(=O)N[C@H]3COc4cc(N5CCNCC5)ccc4C3)cnn12
200 to 2000 nM
Cc1ccc2c(N)c(C(=O)N[C@H]3CCc4nc(N5C[C@@H](N)[C@@H](OC(C)(F)F)C5)ccc4C3)sc2n1
> 2000 nM
CO[C@H]1CN(c2ccc3c(c2)CC[C@H](NC(=O)c2cnc4c(c2)[C@H]2C[C@H]2CN4)C3)C[C@@H]1N
> 2000 nM
COC[C@@H]1CNCCN1c1ccc2c(c1)OC[C@H](NC(=O)c1sc3nc(C)ccc3c1N)C2
50 to 200 nM

Prompt: State the recorded IC50 for this entry: CCO[C@@H]1CN(c2ccc3c(n2)CC[C@H](NC(=O)c2sc4nc(C)ccc4c2N)C3)C[C@@H]1N
Completion: > 2000 nM

Prompt: Similarly, C[C@@H]1CCc2cc(C(=O)N[C@H]3COc4cc(N5CC6CCC(C5)N6)ccc4C3)cnc2N1 ?
Completion: 200 to 2000 nM

###

TARGET_ENTITY: USP28 (USP28-5(1-1077)-TEV-6*His; LifeSensors) (Homo sapiens, UniProt Q96RU2)
Construct: construct USP28 (USP28-5(1-1077)-TEV-6*His; LifeSensors); TEV cleavage site (C); 6xHis (C); purchased LifeSensors
Sequence (Q96RU2 1-1077): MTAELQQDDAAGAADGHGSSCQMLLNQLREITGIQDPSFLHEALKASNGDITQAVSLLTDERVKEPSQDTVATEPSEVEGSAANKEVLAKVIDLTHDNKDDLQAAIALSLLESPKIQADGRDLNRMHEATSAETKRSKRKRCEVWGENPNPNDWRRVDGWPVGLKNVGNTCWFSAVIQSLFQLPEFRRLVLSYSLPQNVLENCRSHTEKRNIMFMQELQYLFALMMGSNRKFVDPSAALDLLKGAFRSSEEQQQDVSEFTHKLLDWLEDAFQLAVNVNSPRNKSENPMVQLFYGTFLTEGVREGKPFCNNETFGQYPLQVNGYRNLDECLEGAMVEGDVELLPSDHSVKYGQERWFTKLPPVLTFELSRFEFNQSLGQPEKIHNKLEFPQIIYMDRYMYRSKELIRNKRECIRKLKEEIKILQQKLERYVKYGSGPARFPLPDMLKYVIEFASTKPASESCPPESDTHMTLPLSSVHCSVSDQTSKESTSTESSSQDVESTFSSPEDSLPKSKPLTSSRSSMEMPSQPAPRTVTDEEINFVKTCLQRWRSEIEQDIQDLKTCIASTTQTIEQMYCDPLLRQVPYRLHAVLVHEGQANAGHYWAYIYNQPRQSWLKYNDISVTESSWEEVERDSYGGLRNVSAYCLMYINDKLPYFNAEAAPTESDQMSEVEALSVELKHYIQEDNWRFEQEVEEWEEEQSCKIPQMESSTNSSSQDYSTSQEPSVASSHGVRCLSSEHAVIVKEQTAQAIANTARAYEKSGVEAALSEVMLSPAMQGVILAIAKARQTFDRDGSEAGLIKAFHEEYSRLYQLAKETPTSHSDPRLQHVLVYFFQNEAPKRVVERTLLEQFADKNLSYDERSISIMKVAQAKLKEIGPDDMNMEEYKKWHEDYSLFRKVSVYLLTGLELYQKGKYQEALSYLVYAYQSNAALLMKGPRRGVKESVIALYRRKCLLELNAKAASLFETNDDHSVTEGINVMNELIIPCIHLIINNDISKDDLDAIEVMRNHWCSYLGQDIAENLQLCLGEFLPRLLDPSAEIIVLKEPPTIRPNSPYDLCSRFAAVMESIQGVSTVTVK
ASSAY_METHOD_TEXT: Ubiquitin-Rhodamine 110 Assay for USP28 Activity, Example A-1(b)
Assay type: biochemical
SETTINGS: Ub-Rh110 assay, Example A-1(b)
ASSAY_METRIC: USP28 A-1(b) IC50 range

Cc1ccc2c(N)c(C(=O)N[C@@H]3COc4cc(N5CCNCC5)c(F)cc4C3)sc2n1 [Example 1-36]
+ (>2 μM)
Cc1nc2sc(C(=O)N[C@H]3COc4cc(N5CCNCC5)cc(F)c4C3)c(N)c2s1 (single isomer, unassigned) [Example 1-37]
+ (>2 μM)
Cc1cnc2c(N)c(C(=O)N[C@H]3COc4cc(N5CC6COCC(C5)N6)ccc4C3)sc2n1 [Example 2-12]
++ (0.2-2 μM)
Cc1ccc2c(N)c(C(=O)N[C@H]3COc4cc(N5CCNCC5)c(F)cc4C3)sc2n1 [Example 1-35]
+++ (0.05-0.2 μM)
Cc1ccc2c(N)c(C(=O)N[C@H]3COc4cc(N5CC6CNCC(C5)C6(F)F)ccc4C3)sc2n1 [Example 2-1]
++++ (0.001-0.05 μM)
Cc1ccc2c(N)c(C(=O)N[C@H]3COc4cc(N5CCNC[C@@H]5C)ccc4C3)sc2n1 [Example 2-4]
++++ (0.001-0.05 μM)
Cc1ccc2c(N)c(C(=O)N[C@@H]3COc4cc(N5CC6CC(C5)N6)cc(F)c4C3)sc2n1 (single isomer, unassigned) [Example 1-41]
+++ (0.05-0.2 μM)
Cc1ccc2c(N)c(C(=O)N[C@H]3COc4cc(N5CCNCC56COC6)ccc4C3)sc2n1 [Example 2-10]
+++ (0.05-0.2 μM)

Prompt: State the recorded USP28 A-1(b) IC50 range for this entry: Cc1ccc2c(N)c(C(=O)N[C@@H]3COc4cc(N5CC6CCCC(C5)N6)ccc4C3)sc2n1 (single isomer, unassigned) [Example 1-6]
Completion: ++ (0.2-2 μM)

Prompt: Similarly, Cc1cc(C)c2c(N)c(C(=O)N[C@H]3COc4cc(N5CC6CC(C5)N6)ccc4C3)sc2n1 [Example 2-18] ?
Completion: +++ (0.05-0.2 μM)
